Run description: Topical pharmacokinetic experiment in mice
Assay type: in vivo
Recorded conditions: female, Balb/c, mouse, whole blood, 22.5 µL of 1% w/v 10a; mice, topical 22.5 μL of 1% 10a in propylene glycol/ethanol 7/3; 2 h; read-out: concentrations in blood
Property: concentration at 2 h (µM)
Numbers only, in µM.

[Q] Dear colleague, I am looking for the recorded concentration at 2 h of the following compound: CCC/N=C1\S/C(=C\c2ccc(OC(C)=O)c(C)c2)C(=O)N1c1ccccc1C [Compound 10a]
[A] 8.8

----------
Run description: Chemical stability in DMSO solution
Assay type: physicochemical
Recorded conditions: Table 2; stored in DMSO solution for 28 days; n = 1
Property: stability (% decrease in purity) (%)
Give bare numbers, in %.

[Q] Dear colleague, I am looking for the recorded stability (% decrease in purity) of the following molecule: CCC/N=C1\S/C(=C\c2ccc(O)c(Cl)c2)C(=O)N1c1ccccc1C [Compound 4a]
[A] 6

Parameters: items (list). Returns: stability (% decrease in purity) for each item.
1. CCC/N=C1\S/C(=C\c2ccc(O)c(C)c2)C(=O)N1c1ccccc1C [Compound 9k]
2. CCC/N=C1\S/C(=C\c2ccc(O)cn2)C(=O)N1c1ccccc1C [Compound 9i]

[A]
[3, 4]

[Q] Dear colleague, I am looking for the recorded stability (% decrease in purity) of the following molecule: CCC/N=C1\S/C(=C\c2ccc(O)cc2)C(=O)N1c1ccccc1C [Compound 9j]
[A] 0

----------
Run description: Chemical stability in DMSO solution
Format: physicochemical
Recorded conditions: Table 3; % loss in purity when stored in DMSO solution for 28 days; n = 1
Text: Although several compounds shown in Table 2 satisfy the rapid clearance requirements of a soft drug and retain primary activity, none were suitable for progression into in vivo studies due to chemical stability liabilities. […] The instability in solution represented a major development hurdle as topical drugs are usually stored in solution or suspensions (cream, ointment, paste, lotion, or gels), rather than in solid form, as is the case for oral drugs. […]
Kindly state stability (% decrease) for each of the entries shown.
Answer shape: numeric part, then the unit.

[Q] Dear colleague, I am looking for the recorded stability (% decrease) of the following compound: CCC/N=C1\S/C(=C\c2ccc(OC(=O)CCO)c(C)c2)C(=O)N1c1ccccc1C [Compound 10f]
[A] 0%

[Q] Dear colleague, I am looking for the recorded stability (% decrease) of the following compound: CCC/N=C1\S/C(=C\c2ccc(OC(C)=O)c(C(F)(F)F)c2)C(=O)N1c1ccccc1C [Compound 10c]
[A] 1.4%

[Q] Dear colleague, I am looking for the recorded stability (% decrease) of the following compound: CCC/N=C1\S/C(=C\c2ccc(OC[C@H](O)CO)c(Cl)c2)C(=O)N1c1ccccc1C [ponesimod, reference compound]
[A] 0%

[Q] Dear colleague, I am looking for the recorded stability (% decrease) of the following compound: CCC/N=C1\S/C(=C\c2ccc(OC(C)=O)c(C)c2)C(=O)N1c1ccccc1C [Compound 10a]
[A] 0%

Please find the next compound below.
[Q] Dear colleague, I am looking for the recorded stability (% decrease) of the following compound: CCC/N=C1\S/C(=C\c2ccc(OC(C)=O)c(Br)c2)C(=O)N1c1ccccc1C [Compound 10b]
[A] 6.3%

----------
Run description: Topical pharmacokinetic experiment in mice
Format: in vivo
Recorded conditions: female, Balb/c, mouse, skin, 22.5 µL of 1% w/v 10a; mice, topical 22.5 μL of 1% 10a in propylene glycol/ethanol 7/3; 8 h; read-out: concentration in the skin
Property: concentration at 8 h (µM)
Give bare numbers, in µM.

[Q] Dear colleague, I am looking for the recorded concentration at 8 h of the following molecule: "CCC/N=C1\S/C(=C\c2ccc(O)c(C)c2)C(=O)N1c1ccccc1C"
[A] 101
